// provenance: patent US6451800B1

Reported pIC50 values follow for various compounds
- measuredTarget: integrin α5β1 (fibronectin receptor purified from the human placenta) (Homo sapiens, UniProt P05556+P08648)
- Construct: a fibronectin receptor (protein content: 52.1 μg/ml) purified from the human placenta
- Sequence (P08648 42-894 limits assumed): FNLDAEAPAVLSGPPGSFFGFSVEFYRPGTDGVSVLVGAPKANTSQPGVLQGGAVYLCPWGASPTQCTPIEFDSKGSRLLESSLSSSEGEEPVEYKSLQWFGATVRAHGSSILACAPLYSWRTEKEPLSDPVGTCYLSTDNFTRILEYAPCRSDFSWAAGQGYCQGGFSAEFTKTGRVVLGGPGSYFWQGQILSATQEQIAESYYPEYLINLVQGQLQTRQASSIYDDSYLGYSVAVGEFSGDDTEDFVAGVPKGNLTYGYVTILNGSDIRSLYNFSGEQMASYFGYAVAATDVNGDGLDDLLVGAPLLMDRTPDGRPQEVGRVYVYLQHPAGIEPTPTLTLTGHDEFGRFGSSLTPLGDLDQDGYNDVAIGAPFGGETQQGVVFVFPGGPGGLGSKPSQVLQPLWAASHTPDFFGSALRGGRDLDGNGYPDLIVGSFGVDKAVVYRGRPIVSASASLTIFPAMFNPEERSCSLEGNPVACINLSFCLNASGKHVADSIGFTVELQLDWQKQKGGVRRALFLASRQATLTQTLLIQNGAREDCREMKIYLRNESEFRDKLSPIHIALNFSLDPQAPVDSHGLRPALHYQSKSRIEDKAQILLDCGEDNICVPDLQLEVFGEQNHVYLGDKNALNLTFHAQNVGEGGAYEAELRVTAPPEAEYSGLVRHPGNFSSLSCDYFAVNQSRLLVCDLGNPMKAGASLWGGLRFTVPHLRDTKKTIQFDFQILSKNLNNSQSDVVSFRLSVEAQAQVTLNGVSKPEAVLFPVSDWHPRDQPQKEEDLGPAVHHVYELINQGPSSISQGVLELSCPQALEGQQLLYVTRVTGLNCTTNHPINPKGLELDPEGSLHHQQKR
- Sequence (P08648 895-1049 partner limits assumed): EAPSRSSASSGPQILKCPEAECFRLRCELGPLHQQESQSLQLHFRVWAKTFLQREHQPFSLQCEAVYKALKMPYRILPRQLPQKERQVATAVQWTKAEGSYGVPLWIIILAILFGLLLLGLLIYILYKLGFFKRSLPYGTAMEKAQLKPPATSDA
- Sequence (P05556 21-798): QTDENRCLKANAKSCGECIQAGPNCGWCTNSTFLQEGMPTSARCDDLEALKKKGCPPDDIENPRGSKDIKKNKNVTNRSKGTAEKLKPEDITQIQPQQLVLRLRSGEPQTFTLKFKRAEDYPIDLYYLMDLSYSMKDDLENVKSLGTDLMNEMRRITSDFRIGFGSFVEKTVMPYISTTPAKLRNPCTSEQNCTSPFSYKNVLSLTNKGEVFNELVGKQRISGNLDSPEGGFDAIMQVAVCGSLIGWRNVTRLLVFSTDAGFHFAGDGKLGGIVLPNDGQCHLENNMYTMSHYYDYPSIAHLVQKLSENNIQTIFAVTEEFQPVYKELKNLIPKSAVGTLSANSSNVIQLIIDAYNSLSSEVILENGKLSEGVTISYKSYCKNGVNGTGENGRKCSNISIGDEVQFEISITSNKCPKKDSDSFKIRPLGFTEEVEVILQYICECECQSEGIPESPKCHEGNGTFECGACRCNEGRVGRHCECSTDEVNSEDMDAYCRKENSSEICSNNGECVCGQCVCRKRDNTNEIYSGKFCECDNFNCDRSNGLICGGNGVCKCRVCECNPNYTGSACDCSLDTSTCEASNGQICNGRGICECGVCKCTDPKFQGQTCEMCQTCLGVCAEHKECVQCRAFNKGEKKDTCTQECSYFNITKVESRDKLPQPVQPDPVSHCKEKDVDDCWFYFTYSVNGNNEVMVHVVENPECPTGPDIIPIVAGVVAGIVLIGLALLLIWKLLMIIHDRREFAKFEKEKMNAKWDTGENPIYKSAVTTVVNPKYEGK
- assayProcedure: α5β1 binding assay (fibronectin-fibronectin receptor binding assay)
- conditionSet: read-out: IC50, integrin α5β1 antagonistic activity (fibronectin-fibronectin receptor binding)
pIC50: −log10 of the molar value.
assayReadout: pIC50

O=C(NC[C@H](NS(=O)(=O)c1ccccc1)C(=O)O)c1ccc(N2CCN(C3=NCCCN3)CC2)c(Cl)c1: 4.20
Cc1cc(C)c(S(=O)(=O)N[C@@H](CNC(=O)c2ccc(N3CCN(C4=NCCCN4)CC3)c(F)c2)C(=O)O)c(C)c1: 4.89
